Reference source: patent US5834506A

System: HIV in lymphocyte derived CEM cells
Test: Cellular Infection Assay, antiviral efficacy in HIV infected CEM cells (XTT cytopathic procedure)
Type: cell-based
Conditions: Human immunodeficiency virus 1, CCRF-CEM; CEM cells; reduces HIV cytopathic effects 50% relative to untreated control; read-out: Antiviral Efficacy EC50
METRIC: EC50

1) Cc1cc(SC2=C(O)CC(CCc3cccc(O)c3)(CCc3cccc(O)c3)OC2=O)c(C(C)(C)C)cc1OS(=O)(=O)N(C)C; 2300 nM
2) Cc1ccc(C(C)(C)C)c(SC2=C(O)CC(CCc3ccccc3)(CCc3ccccc3)OC2=O)c1 [Ref A, reference compound]; > 23000 nM
3) Cc1cc(SC2=C(O)C[C@@](CCc3ccccc3)(c3ccccc3)OC2=O)c(C(C)(C)C)cc1CO; 1900 nM
4) CCNS(=O)(=O)Oc1cc(C(C)(C)C)c(SC2=C(O)CC(C)(CCc3ccc(O)cc3)OC2=O)cc1C (racemic); 1500 nM
5) Cc1cc(SC2=C(O)CC(C)(CCc3ccc(O)cc3)OC2=O)c(C(C)(C)C)cc1NS(=O)(=O)c1ccc(C#N)cc1 (stereo not drawn); 5000 nM
6) COc1cc(CCC2(CCc3ccc(O)c(OC)c3)CC(O)=C(Sc3cc(C)c(OCCO)cc3C(C)(C)C)C(=O)O2)ccc1O; 2000 nM
7) Cc1cc(SC2=C(O)CC(CCc3ccc(N)cc3)(c3ccccc3)OC2=O)c(C(C)(C)C)cc1CO (stereo not drawn); 3700 nM
8) Cc1cc(SC2=C(O)CC(CCc3ccc(O)cc3)(C3CCCCC3)OC2=O)c(C(C)(C)C)cc1CO (stereo not drawn); 500 nM
9) Cc1cc(SC2=C(O)CC(C)(CCc3ccc(O)cc3)OC2=O)c(C(C)(C)C)cc1NS(=O)(=O)c1ccc(F)cc1 (stereo not drawn); 2400 nM
